- experiment.description: chemical genetic growth profiling, strain panel (AID 1159580);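 note: tested at 20 µM; growth read once vehicle control cultures reached saturation at 30 °C; 1 = growth at the plate median or of vehicle wells; lower values mean less growth of the strain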
- condition.details: S. cerevisiae deletion strains, growth OD, locus YOR061W, strain CKA2, stronger effect = lower value
Screen size: about 5,500 compounds; about 2,000 (36%) were called active. About 18% were inconclusive and are not listed. Some of the results follow.
Overview of recorded normalized growth for various molecules

| molecule | normalized growth |
| --- | --- |
| O=C(O)C1=C[C@@H](O)[C@@H](O)[C@H](O)C1 | 1.01 (inactive) |
| NC(N)=NC(=O)c1nc(Cl)c(N2CCCCCC2)nc1N | 1.01 (inactive) |
| CCOC(=O)c1c(C)cc(OC)cc1O | 1 (inactive) |
| CC(=O)OC(C)C[N+](C)(C)C (stereo not drawn) | 1.01 (inactive) |
| NC(N)=NC(=O)c1nc(Cl)c(N)nc1N | 1.01 (inactive) |
| C[N+](C)(C)CC(O)CC(=O)O (stereo not drawn) | 1.01 (inactive) |
| CC[n+]1c(-c2ccccc2)c2cc(N)ccc2c2ccc(N)cc21 | 0.876 (active) |
| COC(=O)c1c(C)cc(OC)cc1O | 1.01 (inactive) |

---

- experiment.description: chemical genetic growth profiling, strain panel (AID 1159580);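 note: tested at 20 µM; growth read once vehicle control cultures reached saturation at 30 °C; 1 = growth at the plate median or of vehicle wells; lower values mean less growth of the strain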
- condition.details: S. cerevisiae deletion strains, growth OD, locus YOR070C, strain gyp1
In all, about 5,500 compounds went through this assay and about 2,000 (36%) were called active. Not shown: some 18% with an inconclusive outcome. Rule as the data show it: active = normalized growth mostly below about 0.91 (no sharp cut-off); inconclusive = no clear call, values can overlap the other calls; inactive = mostly above about 0.92. This is one part of the list. Where a SMILES comes first, the peptide text is derived from it.
Outcomes: T for active, F for inactive

| molecule | label |
| --- | --- |
| CC1(C)C=CC(=O)[C@@]2(C)C1CC(=O)[C@]1(C)C2CC[C@@]2(C)[C@H](c3ccoc3)OC(=O)C3OC321 (some centres undefined) | F |
| COc1cccc2c(C)cc(=O)[nH]c12 | F |
| CC(C)c1c(O)ccc2c1CCC1[C@@](C)(CO)CCC[C@]21C (some centres undefined) | F |
| CC(=O)Oc1ccc2c(c1C(C)C)CCC1C(C)(C)CCC[C@]21C (some centres undefined) | F |
| CCN[C@@H]1C[C@H](N)[C@@H](O[C@H]2OC(CN)=CC[C@H]2N)[C@H](O)[C@H]1OC1OC[C@](C)(O)[C@H](NC)[C@H]1O (some centres undefined) | F |
| COc1ccc2c(c1)CCC1C2CC[C@@]2(C)C1CC[C@@H]2O (some centres undefined) | T |
| O=C(O[C@@H]1Cc2c(O)cc(O)cc2O[C@@H]1c1cc(O)c(=O)c2c(O)c(O)cc([C@H]3Oc4cc(O)cc(O)c4C[C@H]3OC(=O)c3cc(O)c(O)c(O)c3)c2c1)c1cc(O)c(O)c(O)c1 | T |
| CC1(C)C2CC(=O)[C@]3(C)C(CC[C@@]4(C)[C@H](c5ccoc5)OC(=O)C5OC543)[C@@]2(C)[C@@H](O)C[C@H]1O (some centres undefined) | F |
| COc1ccc2c(c1)CCC1C2CCC2(C)C1C[C@@H](O)C2O (some centres undefined) | F |
| C[C@]12CCC3c4ccc(O)cc4CCC3C1C[C@@H](O)[C@@H]2O (some centres undefined) | F |
| COC(=O)[C@H](Cc1ccccc1)NC(=O)[C@@H](N)CC(=O)O (H-Asp-Phe-OMe) | F |
| CN[C@@H]1C(O)[C@@H](O[C@@H]2[C@@H](O)[C@H](O[C@H]3OC(CN)=CC[C@H]3N)[C@@H](N)C[C@H]2N)OC[C@]1(C)O (some centres undefined) | F |
| Oc1cc2c(cc1O)C1c3ccc(O)c(O)c3OCC1(O)C2 (centres undefined) | F |
| CN[C@@H]1[C@@H](O)C(OC2[C@@H](N)C[C@@H](N)[C@H](O[C@H]3O[C@H](C(C)O)[C@@H](O)[C@H](O)[C@H]3N)[C@H]2O)OC[C@]1(C)O (some centres undefined) | F |
| CC1(C)C(=O)C=C[C@@]2(C)C1CC(=O)[C@]1(C)C2CC[C@@]2(C)[C@H](c3ccoc3)OC(=O)[C@H]3O[C@]321 (some centres undefined) | F |
| COc1cc(OC)c2c(=O)c(OC)c(-c3ccc(OC)c(OC)c3)oc2c1 | F |
| CCCC(C)(COC(N)=O)COC(=O)NC(C)C (centres undefined) | F |
| O=c1c(O)c(-c2ccc(O)c(O)c2)oc2c(O)c(O)cc(O)c12 | F |
| CC1(C)C2CC(=O)[C@]3(C)C(CC[C@@]4(C)[C@H](c5ccoc5)OC(=O)[C@H]5O[C@]543)[C@@]2(C)C(=O)C[C@H]1O (some centres undefined) | F |
| CNC(=O)Oc1cccc2c1OC(C)(C)O2 | F |
| C=C(C)[C@H]1COc2cc3oc(=O)ccc3cc2O1 | T |
| CC(=O)O[C@@H]1CC2C(C)(C)C(=O)C=C[C@]2(C)C2CC[C@@]3(C)[C@H](c4ccoc4)OC(=O)[C@H]4O[C@]43[C@@]21C (some centres undefined) | F |
| CC1(C)O[C@H]2CC(=O)OC[C@]23[C@H]2CC[C@@]4(C)[C@H](c5ccoc5)OC(=O)[C@H]5O[C@]54[C@]2(C)C(=O)C[C@@H]13 | F |
| CC(C)(C)NCC(O)c1cc(O)cc(O)c1 (centres undefined) | F |
| O=c1ccc2cc(OC3OC(CO)C(O)C(O)C3O)c(O)cc2o1 (centres undefined) | F |
| O=C(OC1Cc2c(O)cc(O)cc2OC1c1cc(=O)c(O)c2c(O)c(O)cc(C3Oc4cc(O)cc(O)c4CC3O)c2c1)c1cc(O)c(O)c(O)c1 (centres undefined) | F |
| O=C(O[C@@H]1Cc2c(O)cc(O)cc2O[C@@H]1c1cc(O)c(=O)c2c(O)c(O)cc([C@H]3Oc4cc(O)cc(O)c4C[C@H]3O)c2c1)c1cc(O)c(O)c(O)c1 | T |
| CC1(C)C(=O)C=C[C@@]2(C)C1C[C@@H](O)[C@]1(C)C2CC[C@@]2(C)[C@H](c3ccoc3)OC(=O)[C@H]3O[C@]321 (some centres undefined) | F |
| COc1ccc(-c2oc3c(CC=C(C)C)c(O[C@@H]4O[C@H](CO)[C@@H](O)[C@H](O)[C@H]4O)cc(O)c3c(=O)c2O[C@@H]2O[C@@H](C)[C@H](O)[C@@H](O)[C@H]2O)cc1 | F |
| CCc1cc(C(N)=S)ccn1 | F |
| Cc1[nH]ccc2c1[nH]c1cc(=O)ccc12 | F |
| CNC(C)C(O)c1ccccc1 (centres undefined) | F |
| CCCCC1C(=O)N(c2ccccc2)N(c2ccc(O)cc2)C1=O (centres undefined) | F |
| COC(=O)[C@@]1(C)CCC[C@]2(C)c3ccc(O)c(C(C)C)c3CCC12 (some centres undefined) | T |
